Here the recorded melting point is given for each entry.

>>> print(df.to_string())
                                   compound      obs_value
0  CC(C)(C)OC(=O)NCc1cccc(C(O)c2cc(Cl)ccc2NCc2ccc(OCc3ccccc3)c(OCc3ccccc3)c2)c1 (centres undefined)  118 to 120 °C
1        CCOc1ccccc1C(=O)Nc1cccc(C)c1C(N)=O  166 to 168 °C
2  O=C(c1ccc(-c2ccccc2)cc1)c1cccc(C(=O)c2ccc(-c3ccccc3)cc2)c1  182 to 186 °C

// switching to the query compound
// "Cc1nn(-c2c(Cl)cc(C(F)(F)F)cc2Cl)c(N)c1SC#N" : melting point value = 134 °C

###

measurement_type: melting point

>>> df
                   compound  measurement_type    obs_value
0  CC(=O)C=Cc1cccc(N(C)C)c1     melting point  47 to 49 °C

// "O=c1[nH]c2cc(Cl)cc(OCCNCc3ccccc3)c2[nH]1" : melting point value = 192 to 193 °C

// "O=c1ccc(-c2ccc(-n3ccnc3)nc2)n[nH]1" : melting point value = 261 to 263 °C

// "CON(C)Cc1nc2c(N)nc3ccccc3c2n1CC1(O)CCC1" : melting point value = 219 to 221 °C

// "O=C(Nc1ccc(N2CCOCC2)cc1)N(C[C@H]1CC[C@H](CN(C(=O)Nc2ccc(N3CCOCC3)cc2)C2CCCCC2)CC1)C1CCCCC1" : melting point value = 156 to 158 °C

###

Here the recorded melting point is given for each entry.

>>> print(df.to_string())
                                   compound      obs_value
0  COC(=O)c1c(CNC(=O)c2ccc(C(=O)O)cc2)ccc2c1C(C)(C)CCC2(C)C   95 to 100 °C
1  CCCc1c(OC(C)c2cccc(C(=O)O)c2)ccc(C(C)=O)c1O (centres undefined)  101 to 103 °C
2  COc1cc(OC(c2ccccc2)c2ccccc2)ccc1/C=C/c1cc(/C=C/c2ccc3cc[nH]c3c2)[nH]n1  114 to 119 °C
3  COc1ccc2c(c1)CCC(CC#N)C2=O (centres undefined)    90 to 93 °C
4    C=CCOc1ncc(F)c(N(N)C(=O)c2cccc(C)c2)n1  181 to 185 °C
5  CCCOc1ccc2oc(-c3ccc4c(c3)C=C(C(=O)Nc3ccc(CN(C)C5CCOCC5)cc3)CCS4(=O)=O)cc2c1  241 to 242 °C

// CCOC(Cc1ccc(OCc2nc(C3CC3)oc2C)c2ccsc12)C(=O)O (centres undefined) : melting point value = 153 to 154 °C

// "O=S(=O)(NCc1ccc(Br)cc1)c1ccccc1Br" : melting point value = 108 to 110 °C

// CCCCCCCC(=O)c1ccc(CCC(CC)(CCOC(C)=O)NC(C)=O)cc1 (centres undefined) : melting point value = 66 to 69 °C

// CC(C(=O)O)c1ccc(-c2ccccc2F)cc1 (centres undefined) : melting point value = 94.5 to 97 °C

// "O=C(O)c1ccc(C(=O)Nc2cc3c4c(c2)CCCC4CCC3)cc1" : melting point value = 283 to 284 °C

// "CCOC(=O)Cn1c(-c2ccc(OC)cc2)nc2cccnc21" : melting point value = 107 to 108 °C
